# study_system: eOD-GT8 (monomeric ligand) (Human immunodeficiency virus 1, …)
outcome_measure: Kd (nM)
Entry rule: numbers only, all in nM.

Reference set, count: 2
• g5-D78-14_CLK19 (antibody, V domains shown) VH: QVQLVQSGAEVKKPGASVKVSCKASGYTFTGYYIHWVRQAPGQGLEWMGWINPSYGAVNYARKFQGRVTMTRDTSITTAYMELQRLRSDDTAIYYCTIALAGYRWGFDYWGQGALVTVSS VL: DIQMTQSPSSLSAFVGDRVTITCQARLDIRYSLNWYQQKPGKAPNLLIYDASNLETGVPSRFSGSGSGTNFTFTINTLQPEDIATYYCQQYETFGPGTKVDIK = 11
• g28v2-D46-6_CLK09 (antibody, V domains shown) VH: QVQLVQSGAEVKKPGASVKVSCKASGYTFTDYYMHWVRQAPGQGPEWMGWLNPNNGGRNFARKFQDRVTVTRDTSLSTAYMELSRLRSDDTAVYYCARVGEKWTFDIWGQGTMVTVSS VL: DIQMTQSPSSLSASVGGRVTITCQASQDISNYLNWYQQKPGKAPKLLIYDVSNLETGVPSRFSGSGSGTDFTFTISSLQPEDIATYYCQQYEFFGGGTKVEIK = 0.211

Note to self: Kd recorded for g28v2-D38-5_CLK19 (antibody, V domains shown) VH: QVQLVQSGAEVKKPGASVKVSCKASGYTFIDYYIHWVRQAPGQGLEWMGWINPYHGGTNCAQKFQDRVTMTRDTSISTAYLEMSRLRSDDTAVFFCVIALAGHGWRFDYWGQGTQVTVSS VL: DIQMTQSPSSLSASVGDRVTITCQASQDINNYLNWYQQKPGKAPKLLIYDTSNLETGVPSRFSGSGSGTDFTFTISSLQPEDIATYYCQQYAAFGPGTKVDIK was 4.43
